- System: GSK3β (Homo sapiens, UniProt P49841)
- Sequence (P49841 whole entry): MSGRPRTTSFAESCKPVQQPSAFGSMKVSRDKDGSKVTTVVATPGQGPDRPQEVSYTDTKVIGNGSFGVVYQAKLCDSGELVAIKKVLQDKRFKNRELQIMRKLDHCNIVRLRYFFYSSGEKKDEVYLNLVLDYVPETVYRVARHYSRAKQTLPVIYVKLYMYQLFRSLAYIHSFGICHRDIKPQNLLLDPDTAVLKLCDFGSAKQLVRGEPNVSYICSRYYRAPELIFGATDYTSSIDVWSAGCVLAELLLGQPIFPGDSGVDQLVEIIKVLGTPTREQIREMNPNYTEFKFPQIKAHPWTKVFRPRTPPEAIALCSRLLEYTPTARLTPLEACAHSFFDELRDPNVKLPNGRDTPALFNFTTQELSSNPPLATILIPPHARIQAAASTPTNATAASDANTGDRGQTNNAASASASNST
- Assay name: Inhibitory activity against GSK3β (33P-ATP phosphorylation of prephosphorylated GS1 peptide, four protocols)
- Assay type: biochemical
- Condition parameters: protocol 3: 7.5 μM GS1 peptide, 10 μM ATP, 50 mM Hepes pH 7.2, one hour at room temperature
- Procedure: Inhibitory Activity of the Medicament of the Present Invention Against GSK3β Four different protocols can be used. […] Incorporated ^33P radioactivity was determined by liquid scintillation spectrometry. […]
Readout label: IC50 (nM)
Numbers only, in nM.

Measured IC50, O=c1nc(-c2ccncc2)nc(NCCc2ccccc2)[nH]1 [compound 5] : 50
